- assay_protocol: in vivo
- Set-up: species or system mice
- study_conditions: C57, mouse, iv, 0.037 MBq, total radioactivity, Tumor uptake
- Experimental: All animal studies were conducted in compliance with Institutional Animal Care and Use Committee approval. C57 mice were purchased from Charles River Laboratory (Wilmington, NC). […] The tumor uptake specificity of ^67Cu-NOTA-PEG2Nle-CycMSHhex and ^67Cu-NOTA-GGNle-CycMSHhex was determined by co-injecting 10 μg (6.07 nmol) of unlabeled NDP-MSH. Mice were sacrificed at 0.5, 2, 4, and 24 h post-injection, and tumors and organs of interest were harvested, weighed, and counted. […]
property_label: tissue uptake at 24 h (%ID/g)
The response must be a number in %ID/g with no trailing unit.

Consider CCCC[C@H](NC(=O)COCCOCCNC(=O)CN1CCN(CC(=O)O)CCN(CC(=O)O)CC1)C(=O)N[C@H]1CC(=O)NCCCC[C@@H](C(N)=O)NC(=O)[C@H](Cc2c[nH]c3ccccc23)NC(=O)[C@H](CCCNC(=N)N)NC(=O)[C@@H](Cc2ccccc2)NC(=O)[C@H](Cc2c[nH]cn2)NC1=O [^67Cu-NOTA-PEG2Nle-CycMSHhex, metal not drawn] . Its measured tissue uptake at 24 h is 9.13
